B1: HDV Ribozyme (parent)
chain: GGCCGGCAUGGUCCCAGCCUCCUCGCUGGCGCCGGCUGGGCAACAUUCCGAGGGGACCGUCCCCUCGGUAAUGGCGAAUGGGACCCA

# Variants of: B1
# assay-summary: self-cleavage, relative activity (ratio to wild type); higher = more cleavage; co-transcriptional
Would you mind telling me the reported self-cleavage of each entry?

Past entries and their recorded results:
GGCCGGCAUGGUCCCAGCCUCCUCGCUGGCGCCGGCUGGGCAACAUUCCAAGGGGACCGUCCCCUCGGUAAUGGCGAAUGGGACCCC [G50A A87C] :: 1.07
GGCCGGCAUGGUCCAAGCCUCCUCGCUGGCGCCGGCUGGGCAACAUUCCGAGGGGACCGUCCCCUCCGUAAUGGCGAAUGGGACCCA [C15A G67C] :: 0.782
GGCCGGCAUGGUCCCAGCCUCUUCGCUGGCGCCGGCUGGGCAACAUUCCGAGGGGACCGUCCCCUCGGUAAUGGCAAAUGGGACCCA [C22U G76A] :: 0.643
GGCCGGCAUGGUCCCAGCUUCCUCGCUGGCGCCGGCUGGGCAACAUUCCGAGGGGACCGUCCCCUAGGUAAUGGCGAAUGGGACCCA [C19U C66A] :: 0.182
GGCCGGCAUGGUCCCAGCCUCCUCGCUGGCGCCGGCUGGGCAACAUUCCGAGGGGCCCGUCCCCUCGGUAAUGCCGAAUGGGACCCA [A56C G74C] :: 0.312

Hi team, please reply with self-cleavage for each item in this list.
1. GGCCGGCAUGGUCCCAGCCUCCUCGCUGGCGUCGGCUGCGCAACAUUCCGAGGGGACCGUCCCCUCGGUAAUGGCGAAUGGGACCCA [C32U G39C]
2. GGCCGGCAUGGUCCCAGCCACCUCGCUGGCGCCGGCUGGGGAACAUUCCGAGGGGACCGUCCCCUCGGUAAUGGCGAAUGGGACCCA [U20A C41G]
3. GGCCGGCAUGGUCCCAGCCUCCUCGCUGGCGCCGGCUGGGCCACAUUCCGAGGGGACCGUCCCCUCGGUAAUCGCGAAUGGGACCCA [A42C G73C]

output:
0.122
0.135
0.119

input: Which value of self-cleavage has been reported for GGCCGGCAUGGUCCCAGCCUCCUCGCUGGCGCCGGCGGGGCAACAUUCCGAGGGGACCGUCCCCUCGGUAAUUGCGAAUGGGACCCA [U37G G73U] in the records?
output: 0.0923
